Ref: a melting point compilation (Tetko et al.)

Measured melting point values are reported for all entries that follow.

Examples with answers:
• CC1(c2ccc(Br)cc2)NC(=O)NC1=O (stereo not given) = 262 to 264 °C
• Cn1c(=O)n(C)c2cc(C(=O)O)c(Br)cc21 = 289 to 291 °C
• O=C(O)c1cc(-c2ccc(-c3ccccc3)cc2)nc2ccccc12 = 289 to 291 °C

// recorded melting point for "Cc1cccc2cc(C(=O)O)oc12" : 216 to 218 °C

Looking up CC(Nc1nc2ccccc2s1)C(=O)O (stereo not given) , I see its melting point listed as 259 to 261 °C

----------
Below is a list of entries, each paired with its recorded melting point value.

* COc1ccc(-c2nn(-c3ccccc3)cc2CC(=O)O)cc1 | 161 to 163 °C
* Cc1nc(N)c(I)cc1Br | 135 to 137 °C

Data point: "CCOC(=O)c1cnc2ccccc2c1Cl" ; melting point = 37 to 39 °C
